The reported numbers originate from PubChem BioAssay AID2060338.

Tested on: 556581-035-R-J1-PDC spheroids with HUVEC/MSC, viability
Test: Anticancer human tumor 556581-035-R-J1-PDC patient-derived ovarian carcinoma cell line growth inhibition [IpAb]
Conditions: second compound 10 µM; first compound 0.316 µM; stronger effect = lower value
Experimental: Combinatorial screen of targeted agents with ipatasertib and abemaciclib in multi-cell type tumor spheroids […] Compounds. […] If the clinical Cmax for an agent had not been determined, the highest concentration tested was 10 microM. NCI60 Cell Culture. […] The optimal seeding densities for each of the cell lines at each time point assessed were determined prior to performing the concentration response studies. […]
QUANTITY_MEASURED: viability, T/C (%)
Give bare numbers, in %.

MOLECULE	NUMERIC_READOUT
Cn1ncc(Cl)c1-c1cc(C(=O)NC(CN)Cc2cccc(F)c2)sc1Cl (stereo not drawn) + CC(C)NCC(C(=O)N1CCN(c2ncnc3c2C(C)CC3O)CC1)c1ccc(Cl)cc1	51.5
C=CC(=O)N1CCN(c2nc(=O)n(-c3c(C)ccnc3C(C)C)c3nc(-c4c(O)cccc4F)c(F)cc23)C(C)C1 (stereo not drawn) + CC(C)NCC(C(=O)N1CCN(c2ncnc3c2C(C)CC3O)CC1)c1ccc(Cl)cc1	45.5

Pending molecule:
## Task Field request: viability, T/C | item: CCCS(=O)(=O)Nc1ccc(F)c(C(=O)c2c[nH]c3ncc(-c4ccc(Cl)cc4)cc23)c1F + CC(C)NCC(C(=O)N1CCN(c2ncnc3c2C(C)CC3O)CC1)c1ccc(Cl)cc1
## Result 47.2

---

Tested on: 556581-035-R-J1-PDC spheroids with HUVEC/MSC, viability
Experiment: Anticancer human tumor 556581-035-R-J1-PDC cell line growth inhibition [IpAb];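 note: spheroids exposed to compounds for 7 days before readout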
Details: second compound 0.316 µM; first compound 0.0316 µM; stronger effect = lower value
viability, T/C less than 80% is 1.0; viability, T/C greater than or equal to 80% is 0.0.

Here are 2 compounds together with their reported answers.
COMPOUND	GROUP
C=CCn1c(=O)c2cnc(Nc3ccc(N4CCN(C)CC4)cc3)nc2n1-c1cccc(C(C)(C)O)n1 + CCN1CCN(Cc2ccc(Nc3ncc(F)c(-c4cc(F)c5nc(C)n(C(C)C)c5c4)n3)nc2)CC1	0.0
CC1(C)CCC(CN2CCN(c3ccc(C(=O)NS(=O)(=O)c4ccc(NCC5CCOCC5)c([N+](=O)[O-])c4)c(Oc4cnc5[nH]ccc5c4)c3)CC2)=C(c2ccc(Cl)cc2)C1 + CC(C)NCC(C(=O)N1CCN(c2ncnc3c2C(C)CC3O)CC1)c1ccc(Cl)cc1	0.0

Alright, here's another compound for you.
## Task Dear reviewer, please state whether CC(C)n1nc(-c2ccc3oc(N)nc3c2)c2c(N)ncnc21 + CCN1CCN(Cc2ccc(Nc3ncc(F)c(-c4cc(F)c5nc(C)n(C(C)C)c5c4)n3)nc2)CC1 has viability, T/C strictly beneath 80%.
## Result 1.0

---

Tested on: 556581-035-R-J1-PDC spheroids with HUVEC/MSC, viability
Assay: Anticancer human tumor 556581-035-R-J1-PDC cell line growth inhibition [IpAb];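 note: spheroids exposed to compounds for 7 days before readout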
Details: curve of first compound; second compound 10 µM
Kindly supply the reported pIC50 values for the records listed here.
Numbers only, as −log10 of the molar value.

MOLECULE	NUMERIC_READOUT
CCCS(=O)(=O)Nc1ccc(F)c(C(=O)c2c[nH]c3ncc(-c4ccc(Cl)cc4)cc23)c1F + CC(C)NCC(C(=O)N1CCN(c2ncnc3c2C(C)CC3O)CC1)c1ccc(Cl)cc1	7.50

Pending molecule:
## Task Field request: pIC50 | item: COc1c(OCCCN2CCOCC2)ccc2c3n(c(=NC(=O)c4cnc(N)nc4)nc12)CCN3 + CC(C)NCC(C(=O)N1CCN(c2ncnc3c2C(C)CC3O)CC1)c1ccc(Cl)cc1
## Result 8.48
